assay: In vitro toxicity screening (CellTiter-Blue cell viability, 48 hours); assay type: cell-based, human; conditions: human

[
  {
    "molecule": "CC(C)C[C@H](NC(=O)[C@H](Cc1ccccc1)NC(=O)c1cnccn1)B(O)O [Bortezomib, bortezomib, reference compound]",
    "CC50 at 48 h": "4.09 µM"
  }
]

----------
experiment: Pharmacokinetics of occidiofungin in DOPC or DOPC:DPPG vesicles; type: in vivo, mice; conditions: female, BALB/c, mouse, in vivo, iv; packaged in DOPC:DPPG (90:10) vesicles, 2.5 mg/kg i.v., mice; read-out: t½ (converted)
Starred links: 1 amine or outer side, 2 acyl side, 3 side chain; linkers in the order of their positions; H or OH if unused. Positions of bridges follow the written chain, without caps; N, C: chain ends. Non-standard residues stand in square brackets, D forms with d. Residues, ends and D or L forms follow the SMILES beside them. ξ: configuration not given here. X1 = CCCCCCCCCCCC(OC1OCC(O)C(O)C1O)C(O)C(O)CC(CC(=O)[*:1])N[*:2]; ξTyr(βOH) = NC(C(=O)O)C(O)c1ccc(O)cc1; ξAsn(3ξ-OH) = NC(=O)C(O)C(N)C(=O)O; Dab = NCC[CH](N)C(=O)O
recorded endpoint: half-life

[
  {
    "compound": "CCCCCCCCCCCC(OC1OCC(O)C(O)C1O)C(O)C(O)CC1CC(=O)NC(CO)C(=O)NC(C(O)c2ccc(O)cc2)C(=O)NC(CCN)C(=O)NCC(=O)NC(CC(N)=O)C(=O)NC(CO)C(=O)NC(C(O)C(N)=O)C(=O)N1 (stereo not shown) [OCFIN-B] (S[ξTyr(βOH)][Dab]GNS[ξAsn(3ξ-OH)]; linker N-C via X1; configuration not given here)",
    "recorded result": "14.8 h"
  }
]

----------
Assay: Pharmacokinetics of occidiofungin in DOPC or DOPC:DPPG vesicles
Assay type: in vivo, mice
Conditions: female, BALB/c, mouse, in vivo, iv, 2.5 mg/kg
Method: Entrapment of occidiofungin in vesicles was done using 1,2-Dioleoyl-sn-glycero-3-phosphocholine (DOPC) and 1,2-dipalmitoyl-sn-glycero-3-[phospho-rac-(3-lysyl(1-glycerol))] (DPPG) from Avanti polar lipids. Lipid cake formation and subsequent hydration was done according to the manufacturer's recommendation. Briefly, 20 mg/ml of DOPC in chloroform was placed in a glass beaker and dried by vacuum evaporation to remove the organic solvent. […]
Starred links: 1 amine or outer side, 2 acyl side, 3 side chain; linkers in the order of their positions; H or OH if unused. Positions of bridges follow the written chain, without caps; N, C: chain ends. Non-standard residues stand in square brackets, D forms with d. Residues, ends and D or L forms follow the SMILES beside them. ξ: configuration not given here. X1 = CCCCCCCCCCCC(OC1OCC(O)C(O)C1O)C(O)C(O)CC(CC(=O)[*:1])N[*:2]; ξTyr(βOH) = NC(C(=O)O)C(O)c1ccc(O)cc1; Dab = NCC[CH](N)C(=O)O

[
  {
    "molecule": "CCCCCCCCCCCC(OC1OCC(O)C(O)C1O)C(O)C(O)CC1CC(=O)NC(CO)C(=O)NC(C(O)c2ccc(O)cc2)C(=O)NC(CCN)C(=O)NCC(=O)NC(CC(N)=O)C(=O)NC(CO)C(=O)NC(CC(N)=O)C(=O)N1 (stereo not shown) [OCFIN-A] (S[ξTyr(βOH)][Dab]GNSN; linker N-C via X1; configuration not given here)",
    "half-life / h": 14.6
  }
]
